- Tested on: peptide-producing enzyme (Mono S fraction) from Empedobacter brevis strain FERM BP-8113
- assay-text: Enzyme substrate specificity (1)-(10), (13), (14)
- Format: biochemical
- test-context: L-amino acid amide hydrochloride 100 mM as carboxy component, L-amino acid 150 mM, pH 9.0, 25° C., 3 hours
Residues, ends and D or L forms follow the SMILES beside them.
Produced peptide overview
Please respond with the number in mM and leave the unit unwritten.

Solved cases below.
                                   molecule                                    target  readout_number
0  C[C@H](N)C(=O)N[C@@H](CCC(N)=O)C(=O)O [L-Ala-L-Gln, L-alanyl-L-glutamine] (H-Ala-Gln-OH)  peptide-producing enzyme (Mono S fraction) from Empedobacter brevis strain FERM BP-8113             7.6
1  N[C@@H](Cc1ccccc1)C(=O)N[C@@H](CO)C(=O)O [L-Phe-L-Ser] (H-Phe-Ser-OH)  peptide-producing enzyme (Mono S fraction) from Empedobacter brevis strain FERM BP-8113             0.6

Recorded result, "NC(=O)CC[C@H](NC(=O)[C@@H](N)Cc1ccccc1)C(=O)O" , Produced peptide: 0.2

Produced peptide in this record for C[C@@H](O)[C@H](N)C(=O)N[C@@H](CCC(N)=O)C(=O)O [L-Thr-L-Gln] (H-Thr-Gln-OH) : 0.3

The molecule listed as C[C@H](N)C(=O)N[C@@H](Cc1cnc[nH]1)C(=O)O [L-Ala-L-His] (H-Ala-His-OH) shows Produced peptide equal to 3.9

Form field Produced peptide, entry CSCC[C@H](NC(=O)[C@H](C)N)C(=O)O [L-Ala-L-Met] (H-Ala-Met-OH) : 3.4

---

Examples of molecules with documented Produced peptide follow.
- System: enzyme (SP-Sepharose HP fraction) derived from Sphingobacterium sp. strain FERM BP-8124
- Type: biochemical
- test-context: Table 15-2; carboxy component 100 mM, L-Gln 150 mM, 0.33 units enzyme, pH 9.0, 25° C., 1.5 hours
Residues, ends and D or L forms follow the SMILES beside them.
// return numeric value only (unit: mM, not printed)

>>> print(df.to_string())
                                   molecule                                    target  attribute_measured  readout_number
0  NC(=O)CC[C@H](NC(=O)[C@@H](N)Cc1ccc(O)cc1)C(=O)O [L-Tyr-L-Gln] (H-Tyr-Gln-OH)  enzyme (SP-Sepharose HP fraction) derived from Sphingobacterium sp. strain FERM BP-8124    Produced peptide             0.6
1  NC(=O)CC[C@H](NC(=O)[C@@H](N)CO)C(=O)O [L-Ser-L-Gln] (H-Ser-Gln-OH)  enzyme (SP-Sepharose HP fraction) derived from Sphingobacterium sp. strain FERM BP-8124    Produced peptide            12.9
2  CC[C@H](C)[C@H](N)C(=O)N[C@@H](CCC(N)=O)C(=O)O [L-Ile-L-Gln] (H-Ile-Gln-OH)  enzyme (SP-Sepharose HP fraction) derived from Sphingobacterium sp. strain FERM BP-8124    Produced peptide             6.4

Now turn to the next molecule.
Documented Produced peptide of NC(=O)CC[C@H](NC(=O)[C@@H](N)Cc1ccccc1)C(=O)O [L-Phe-L-Gln] : 0.8
